Kindly supply the reported TGI values for the records listed here.
System: MDA-N
Assay Comment: NCI tumour cell line growth inhibition, 48 h

Request: Tell me its TGI given [N-]=[N+]=Nc1cc(=O)[nH]c2ccccc12 as the entry.
Result: > 100 µM

Request: Supply measured TGI of CCCCCCc1ccc(CCCCCCCC(=O)O)o1 in your reply.
Result: > 100 µM

Request: Give recorded TGI. C[C@]12CCC(=O)C=C1C[C@@H](O)[C@@H]1[C@@H]2CC[C@@]2(C)[C@H]1CC[C@]2(C)O
Result: > 100 µM

Request: Output measured TGI for this item: O=C(CC(=O)N1N=C(c2ccccc2)C(N=Nc2ccc(S(=O)(=O)CCOS(=O)(=O)O)cc2)C1=O)Nc1ccc(Cl)cc1 (stereo not given)
Result: > 100 µM

Request: Note TGI for the compound shown: N#Cc1c(/C=C/c2ccccc2)c2c([nH]c1=S)CCCCC2
Result: > 100 µM

Request: Output measured TGI for this item: O=C1C=CC2C3C(=O)N(c4ccccc4)C(=O)C3C1N2Cc1ccccc1 (stereo not given)
Result: 10.9 µM

Request: // Input: CC12CCC(C1)C(C)(C)C2OC(=O)c1ccccc1N (stereo not given) . Output its TGI only.
Result: 29.7 µM

Request: Give me measured TGI, please, for this compound: O/N=C1\C/C(=N\O)c2c(Br)sc(Br)c21
Result: > 100 µM

Request: Name the recorded TGI of the item CCCCCCCCCCCC(=O)N(CCCCCCCCC)CC(O)C(O)C(OC1OC(CO)C(O)C(O)C1O)C(O)CO (stereo not given) in your answer.
Result: 38.4 µM

Request: Consider the compound O=C1OC(OC/C(Br)=C(\Br)COC2OC(=O)C(Cl)=C2Cl)C(Cl)=C1Cl (stereo not given) and give its recorded TGI.
Result: 14.3 µM

====

Tested on: HOP-62 NSCLC
Assay Comment: NCI tumour cell line growth inhibition, 48 h
Readout: GI50

Request: Annotate the compound Cc1cc(OCc2ccc(C(F)(F)F)cc2)c2c(c1)C(=O)C=C(NCCN1CCCC1)C2=O with its measured GI50.
Result: 3.44 µM

Request: Query GI50 for CC(C)[C@@H](C(=O)O[C@@H]1/C=C/C(=O)O[C@@H](C)CCC/C=C/[C@@H]2C[C@H](O)C[C@H]21)N(C)C
Result: 22.3 µM

Request: Determine from records and report GI50 for O=C1/C=C/[C@@H](O)[C@@H]2C[C@@H](O)C[C@H]2/C=C/CCC[C@H](CCO)O1
Result: 0.237 µM

Request: Give the reported value of GI50 for this record: CCC(=O)NC1=C(Cl)C(=O)C(NC(=O)CC)=C(Cl)C1=O
Result: > 47.7 µM

Request: Please list GI50 recorded for the compound Cn1nc(C(F)(F)F)cc1-c1cc(Cl)c(OCc2ccc(Cl)cc2)c(-c2ccc(Cl)c(C(F)(F)F)c2)c1O
Result: 1.26 µM

Request: Quickly give me recorded GI50 for CCN1CCN(C(=O)[C@]23CC[C@@H](C)[C@H](C)[C@@H]2C2=CC[C@@H]4[C@@]5(C)CCC(=O)C(C)(C)[C@@H]5CC[C@@]4(C)[C@]2(C)CC3)CC1
Result: 1.38 µM

Request: Please list GI50 recorded for the compound COC(=O)Nc1nc2ccc(C(=O)c3cccc(I)c3)cc2[nH]1
Result: 0.304 µM

Request: For the compound Nc1nc(N)c2c(ccc3c2ccn3Cc2cccc([N+](=O)[O-])c2)n1 , give its measured GI50 value.
Result: 0.0654 µM

Request: Answer with reported GI50 of CC(C)(C)NCC(O)c1ccccc1Cl (configuration not stated)
Result: > 100 µM

Request: Annotate the compound CN1CCN(Cc2ccc(NC(=O)c3cncc(C#Cc4ccc(N)nc4)c3)cc2C(F)(F)F)CC1 with its measured GI50.
Result: 1.3 µM

Request: For the compound CN1C(=O)N(C)C2C1NC(=S)N2/N=C/C=C/c1ccccc1[N+](=O)[O-] (configuration not stated) , give its reported GI50.
Result: 1.01 µM

Request: Answer with the recorded GI50 of N#C/C(=C\c1ccc[nH]1)c1cc(-c2ccc(Cl)cc2)nn1-c1ccccc1 only.
Result: 7.63 µM

Request: Answer with reported GI50 of Cc1nnc(N/N=C/c2ccc([N+](=O)[O-])o2)[nH]c1=O
Result: 1.45 µM

Request: Quickly give me recorded GI50 for C=CCc1c(O)c(C(=O)/C=C/c2ccc(Cl)cc2)c(OC)c2ccoc12
Result: 2.31 µM

Request: Output measured GI50 for this item: CC1=CC(C)=N/C(=N/S(=O)(=O)c2cc(C)c(Cl)cc2SCc2ccccc2)NN1
Result: 82.5 µM

Request: Kindly indicate its recorded GI50. Item: COc1cc(OC)c(/C=C/C(=O)c2c(OC)cc(OC)cc2OC)c(OC)c1
Result: 1.27 µM

Request: Return reported GI50. Input compound: COc1c(C(N)=O)cc(-c2ccc(Cl)cc2)cc1-c1ccc(S(N)(=O)=O)cc1
Result: 18.8 µM

Request: Determine its reported GI50: CCCCCCC(=O)NC1=C(N2CC2)C(=O)C(NC(=O)CCCCCC)=C(N2CC2)C1=O
Result: 5.35 µM

Request: Please report GI50 for the following compound: NS(=O)(=O)c1ccc(-n2nc3c(c2-c2cccs2)Cc2ccccc2-3)cc1
Result: 16.5 µM

Request: Fill in reported GI50 for this entry: COc1cc2c3c(n(C)c(=O)c2cc1OC)-c1cc2c(cc1/C3=C\CCCCl)OCO2
Result: 17.5 µM

Request: Answer with the recorded GI50 for the compound listed here: C[C@@H]1CC[C@@H]2[C@@H]1[C@H](OC(=O)/C=C/C1CCCCC1)[C@]1(C3CCCCC3)C[C@@H](OC(=O)CO)[C@@]2(C)O1
Result: 14.6 µM

Request: Tell me GI50 reported for Nc1ccc(C#Cc2ccccc2C#CCCCCO)cc1
Result: 15.2 µM

====

Tested on: OVCAR-3 ovarian
Assay Comment: NCI tumour cell line growth inhibition, 48 h
Would you mind telling me the reported TGI of each entry?

Request: # return recorded TGI for entry COC(=O)/C=C1\C(CO[Si](C)(C)C(C)(C)C)OC(n2cc(C)c(=O)n(C)c2=O)C1O[Si](C)(C)C(C)(C)C (stereo unspecified)
Result: > 100 µM

Request: Annotate the compound COc1ccc(NC(=O)CSC(=O)c2ccccc2)c(SCCSSCCSc2cc(OC)ccc2NC(=O)CSC(=O)c2ccccc2)c1 with its measured TGI.
Result: > 100 µM

Request: Report TGI, nothing else, for this compound: Cc1nc(N)c(N2CCN(S(=O)(=O)N(Cc3ccccc3)Cc3ccccc3)CC2)c(=O)[nH]1
Result: 73.8 µM

Request: Give a short answer stating reported TGI for CC(C)(C)NCC(O)c1ccccc1Cl (stereo unspecified) .
Result: > 100 µM

Request: Look up TGI of O=C(CCCCCNC(=O)c1ccc(Cl)cc1)NO and report it.
Result: 13 µM

Request: Supply recorded TGI for O=C1CCCC1CC(CN1CCOCC1)Sc1nnnn1-c1ccccc1 (stereo unspecified) here.
Result: > 100 µM

Request: # return recorded TGI for entry O=C1Sc2ccccc2C(=O)N2CCSC12 (stereo unspecified)
Result: > 100 µM

Request: Report TGI for Cc1ccc(/C=C2\CCCCC2=O)cc1
Result: > 100 µM

Request: Look up and report measured TGI for this entry: CC1(C)CC(=O)c2c(N)n[nH]c2C1
Result: > 100 µM

Request: Return reported TGI. Input compound: Cc1cnc2c(c1)C(=O)N(c1ccc(Oc3ccccc3)cc1)S2(=O)=O
Result: > 100 µM

Request: # return recorded TGI for entry Cc1nnc(N/N=C/c2ccc([N+](=O)[O-])o2)[nH]c1=O
Result: 3.18 µM

====

Test system: EKVX NSCLC
Assay Comment: NCI tumour cell line growth inhibition, 48 h
Readout: TGI

Request: Report measured TGI; entry is CC1(c2ccc(F)cc2)C2C(=O)NC(=O)C1C(=O)NC2=O (stereo not drawn)
Result: > 100 µM

Request: State, in one line, measured TGI of O=C1C(Cl)N(c2ccc([N+](=O)[O-])cc2)C1c1c[nH]c2ccccc12 (stereo not drawn)
Result: > 100 µM

Request: Item COc1c(C(N)=O)cc(-c2ccc(Cl)cc2)cc1-c1ccc(S(N)(=O)=O)cc1 : provide TGI
Result: > 25 µM

Request: Please report the measured TGI for O=[N+]([O-])c1ccc2c(c1)C(N1CCN(CCO)CC1)Cc1ccc(F)cc1S2 (stereo not drawn)
Result: 24.1 µM

Request: Provide only the value of recorded TGI for OC(CCN1CCN(CCOC(c2ccccc2)c2ccccc2)CC1)c1ccccc1 (stereo not drawn)
Result: 45.8 µM

Request: Report TGI, nothing else, for this molecule: O=c1c2cccnc2oc2c(Cl)cc(-c3nn[nH]n3)cc12
Result: > 100 µM

Request: Retrieve TGI measured for C=CCC1(CN(C)C)CC/C(=C\c2ccc3c(c2)OCO3)C1=O (stereo not drawn) and print it.
Result: 66.9 µM

Request: Please supply the value of reported TGI for the item Oc1ccc(-c2nc3cc(C(F)(F)F)ccc3s2)cc1
Result: 16.9 µM

Request: Quick one: give measured TGI for O=C1C(c2ccccc2)=C(c2ccccc2)C1(Cl)Cl
Result: 21.7 µM

Request: State its TGI for this molecule: CC1Cc2c(Cl)ncnc2N(C)c2ccccc21 (stereo not drawn)
Result: > 100 µM

Request: Supply TGI value. Item: CC(=O)NC1C(OCc2ccccc2)OC(CO)C(O)C1OC(C)C(=O)NC(C(=O)NC(CCC(=O)NCCCNc1ccc([N+](=O)[O-])c2[nH]c3ccccc3c(=O)c12)C(N)=O)C(C)C (stereo not drawn)
Result: > 100 µM

Request: Give TGI for N#Cc1ccc(-c2ccc(Cl)cc2)n(C2OC(CO)C(O)C(O)C2O)c1=S (stereo not drawn)
Result: > 100 µM

Request: Tell me measured TGI for CN(C(=O)C(C)(C)C)c1ccccc1I(=O)=O please.
Result: > 100 µM
